Data credit: ChEMBL document CHEMBL4130614

inhibition of growth at 10 µM values by entry
tested on: Mycobacterium tuberculosis; experiment: Antibacterial activity against Mycobacterium tuberculosis H37Rv ATCC 25618 assessed as growth inhibition at 10 uM measured at 24 hrs interval by BACTEC radiometric method relative to control; type: functional; conditions: Mycobacterium tuberculosis, H37Rv ATCC 25618, 24 h; read-out: GI
// units = %; emit number, no label

// below: answered molecules
MOLECULE: CN(C)Cc1cc(CCCc2ccccc2)cc(CN(C)C)c1O
inhibition of growth at 10 µM / %: 42
--
MOLECULE: NS(=O)(=O)c1ccc(NCc2ccc(CCCc3ccccc3)cc2O)cc1
inhibition of growth at 10 µM / %: 14
--
MOLECULE: Oc1ccc(CCCc2ccccc2)cc1
inhibition of growth at 10 µM / %: 96
--
MOLECULE: Oc1cccc(CCCc2ccccc2)c1
inhibition of growth at 10 µM / %: 94
--
MOLECULE: Nc1ccc(S(N)(=O)=O)cc1 [SULFANILAMIDE]
inhibition of growth at 10 µM / %: 0

Pending molecule:
// query Can you share its inhibition of growth at 10 µM? I mean this molecule: NS(=O)(=O)c1ccc(NCc2cc(CCCc3ccccc3)cc(CNc3ccc(S(N)(=O)=O)cc3)c2O)cc1
// result 0
